Target: Human immunodeficiency virus type 1 protease (Human immunodeficiency virus 1)
Test: Inhibitory activity against HIV-1 protease

{"ENTRY_SMILES": "COC(=O)[C@H](Cc1ccccc1)NC(=O)[C@H](CC(C)C)NC(=O)[C@H](Cc1ccccc1)CC(O)C[C@@H](Cc1ccccc1)C(=O)N[C@@H](CC(C)C)C(=O)N[C@@H](Cc1ccccc1)C(=O)OC", "SUBJECT_OF_TEST": "Human immunodeficiency virus type 1 protease (Human immunodeficiency virus 1)", "CENSORING_QUALIFIER": "=", "IC50 [nM]": 30}
{"ENTRY_SMILES": "CCCC[C@H](CC(O)(CO)C[C@@H](CCCC)C(=O)N[C@@H](CC(C)C)C(=O)N[C@@H](Cc1ccccc1)C(=O)OC)C(=O)N[C@@H](CC(C)C)C(=O)N[C@@H](Cc1ccccc1)C(=O)OC", "SUBJECT_OF_TEST": "Human immunodeficiency virus type 1 protease (Human immunodeficiency virus 1)", "CENSORING_QUALIFIER": "=", "IC50 [nM]": 2000}
{"ENTRY_SMILES": "COC(=O)[C@@H](NC(=O)[C@@H](NC(=O)[C@@H](CC(=O)C[C@@H](Cc1ccccc1)C(=O)N[C@H](C(=O)N[C@H](C(=O)OC)C(C)C)C(C)C)Cc1ccccc1)C(C)C)C(C)C", "SUBJECT_OF_TEST": "Human immunodeficiency virus type 1 protease (Human immunodeficiency virus 1)", "CENSORING_QUALIFIER": ">", "IC50 [nM]": 10000}
